Below, each entry is listed with its recorded SPS (Spleen).
system: Reticulocyte Depletion Signature (Alas2 and peripherin probes), spleen; conditions: rat, in vivo
Marks after values point to notes of the source that are not given here.

Cn1cnc([N+](=O)[O-])c1Sc1ncnc2nc[nH]c12 :: 122*
COc1cccc2c1C(=O)c1c(O)c3c(c(O)c1C2=O)C[C@@](O)(C(=O)CO)C[C@@H]3O[C@H]1C[C@H](N)[C@H](O)[C@H](C)O1 :: 138*
Nc1nc2nc[nH]c2c(=S)[nH]1 [THIOGUANINE, 2-amino-1,7-dihydro-6H-purine-6-thione] :: 121*
CN(Cc1cnc2nc(N)nc(N)c2n1)c1ccc(C(=O)N[C@@H](CCC(=O)O)C(=O)O)cc1 [METHOTREXATE] :: 148*

What does the data say about its SPS (Spleen)? Entry: Cc1oncc1C(=O)Nc1ccc(C(F)(F)F)cc1 [LEFLUNOMIDE]
71*

What does the data say about its SPS (Spleen)? Entry: CC/C(=C(/CC)c1ccc(O)cc1)c1ccc(O)cc1
88*

What does the data say about its SPS (Spleen)? Entry: COc1cc([C@@H]2c3cc4c(cc3[C@@H](O[C@@H]3O[C@@H]5CO[C@@H](C)O[C@H]5[C@H](O)[C@H]3O)[C@H]3COC(=O)[C@H]23)OCO4)cc(OC)c1O [ETOPOSIDE]
146*
